- Test system: Escherichia coli
- assay.name: Inhibition of Escherichia coli beta-galactosidase 2 mM using beta-D-glycopyranoside after 10 to 30 mins in presence of beta-cyclodextrin by spectrophotometry
Active and inactive are the calls of the source. No cut-off for these calls is given here.

{"structure.string": "O=C(CCC(F)(F)C(F)(F)C(F)(F)C(F)(F)F)NCCCCNC(=S)N1[C@@H]2CO[C@H]1[C@H](O)[C@@H](O)[C@@H]2O", "inhibition": "inactive"}
{"structure.string": "O=C(CCC(F)(F)C(F)(F)C(F)(F)C(F)(F)C(F)(F)C(F)(F)F)NCCCCCCCCCNC(=S)N1[C@@H]2CO[C@H]1[C@H](O)[C@@H](O)[C@@H]2O", "inhibition": "inactive"}
{"structure.string": "O=C(CCC(F)(F)C(F)(F)C(F)(F)C(F)(F)F)NCCCCCCCCCNC(=S)N1[C@@H]2CO[C@H]1[C@H](O)[C@@H](O)[C@@H]2O", "inhibition": "inactive"}
{"structure.string": "O=C(CCC(F)(F)C(F)(F)C(F)(F)C(F)(F)C(F)(F)C(F)(F)F)NCCCCNC(=S)N1[C@@H]2CO[C@H]1[C@H](O)[C@@H](O)[C@@H]2O", "inhibition": "inactive"}
